The reported numbers originate from paper PMC10247784.

System Tested: human TAS2R1 (Homo sapiens, UniProt Q9NYW7)
Construct: expressed in transfected cells; host or cells: HEK293T-Gα16gust44
Method: Calcium imaging assay (FLIPR), HEK293T-Gα16gust44 cells transfected with human TAS2R1
Format: cell-based
Condition Notes: calcium trace, sheet TAS2R1; Time 347.547 s
Recorded Endpoint: RLU

>  <Mol>
C[C@H](CCC(=O)NCCS(=O)(=O)O)[C@H]1CC[C@H]2[C@@H]3[C@H](O)C[C@@H]4C[C@H](O)CC[C@]4(C)[C@H]3C[C@H](O)[C@]12C

>  <Experimental Result>
31.851 RLU

$$$$
>  <Mol>
C[C@H](CCC(=O)O)[C@H]1CC[C@H]2[C@@H]3CC[C@@H]4C[C@H](O)CC[C@]4(C)[C@H]3C[C@H](O)[C@]12C

>  <Experimental Result>
132.414 RLU

$$$$
>  <Mol>
C[C@H](CCC(=O)NCC(=O)O)[C@H]1CC[C@H]2[C@@H]3[C@H](O)C[C@@H]4C[C@H](O)CC[C@]4(C)[C@H]3C[C@H](O)[C@]12C

>  <Experimental Result>
48.6454 RLU

$$$$
>  <Mol>
C[C@H](CCC(=O)NCCS(=O)(=O)O)[C@H]1CC[C@H]2[C@@H]3CC[C@@H]4C[C@H](O)CC[C@]4(C)[C@H]3CC[C@]12C

>  <Experimental Result>
-215.316 RLU

$$$$

###

System Tested: mouse Tas2r144 (Mus musculus)
Construct: expressed in transfected cells; host or cells: HEK293T-Gα16gust44
Sequence (Q7TQB8 whole entry): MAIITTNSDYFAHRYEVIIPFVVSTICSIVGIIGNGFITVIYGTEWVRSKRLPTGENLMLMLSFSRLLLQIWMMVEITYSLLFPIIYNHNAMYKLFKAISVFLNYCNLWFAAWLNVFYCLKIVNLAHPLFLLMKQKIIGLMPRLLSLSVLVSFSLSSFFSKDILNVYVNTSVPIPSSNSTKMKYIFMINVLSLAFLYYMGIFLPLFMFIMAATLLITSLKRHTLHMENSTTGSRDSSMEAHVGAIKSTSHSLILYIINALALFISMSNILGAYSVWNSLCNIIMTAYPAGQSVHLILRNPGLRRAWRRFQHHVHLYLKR
Method: Calcium imaging assay (FLIPR), HEK293T-Gα16gust44 cells transfected with mouse Tas2r144
Format: cell-based
Condition Notes: Time 64.781 s

>  <Mol>
C[C@H](CCC(=O)NCC(=O)O)[C@H]1CC[C@H]2[C@@H]3[C@H](O)C[C@@H]4C[C@H](O)CC[C@]4(C)[C@H]3C[C@H](O)[C@]12C

>  <RLU, RLU>
465.061

$$$$
>  <Mol>
C[C@H](CCC(=O)NCCS(=O)(=O)O)[C@H]1CC[C@H]2[C@@H]3[C@H](O)C[C@@H]4C[C@H](O)CC[C@]4(C)[C@H]3C[C@H](O)[C@]12C

>  <RLU, RLU>
587.565

$$$$
>  <Mol>
C[C@H](CCC(=O)O)[C@H]1CC[C@H]2[C@@H]3[C@H](O)C[C@@H]4C[C@H](O)CC[C@]4(C)[C@H]3C[C@H](O)[C@]12C

>  <RLU, RLU>
637

$$$$
>  <Mol>
C[C@H](CCC(=O)NCCS(=O)(=O)O)[C@H]1CC[C@H]2[C@@H]3CC[C@@H]4C[C@H](O)CC[C@]4(C)[C@H]3CC[C@]12C

>  <RLU, RLU>
424.583

$$$$

###

System Tested: human TAS2R1 (Homo sapiens, UniProt Q9NYW7)
Construct: expressed in transfected cells; host or cells: HEK293T-Gα16gust44
Method: Calcium imaging assay (FLIPR), HEK293T-Gα16gust44 cells transfected with human TAS2R1
Format: cell-based
Condition Notes: Time 44.781 s
Below, each of the compounds is paired with its reported RLU value.

>  <Mol>
C[C@H](CCC(=O)O)[C@H]1CC[C@H]2[C@@H]3CC[C@@H]4C[C@H](O)CC[C@]4(C)[C@H]3C[C@H](O)[C@]12C

>  <RLU / RLU>
351.369

$$$$
>  <Mol>
C[C@H](CCC(=O)NCC(=O)O)[C@H]1CC[C@H]2[C@@H]3[C@H](O)C[C@@H]4C[C@H](O)CC[C@]4(C)[C@H]3C[C@H](O)[C@]12C

>  <RLU / RLU>
571.006

$$$$
>  <Mol>
C[C@H](CCC(=O)NCCS(=O)(=O)O)[C@H]1CC[C@H]2[C@@H]3CC[C@@H]4C[C@H](O)CC[C@]4(C)[C@H]3CC[C@]12C

>  <RLU / RLU>
542.077

$$$$
>  <Mol>
C[C@H](CCC(=O)NCCS(=O)(=O)O)[C@H]1CC[C@H]2[C@@H]3[C@H](O)C[C@@H]4C[C@H](O)CC[C@]4(C)[C@H]3C[C@H](O)[C@]12C

>  <RLU / RLU>
378.941

$$$$

###

System Tested: mouse Tas2r105 (Mus musculus, UniProt Q9JKT4)
Construct: expressed in transfected cells; host or cells: HEK293T-Gα16gust44
Sequence (Q9JKT4 1-300): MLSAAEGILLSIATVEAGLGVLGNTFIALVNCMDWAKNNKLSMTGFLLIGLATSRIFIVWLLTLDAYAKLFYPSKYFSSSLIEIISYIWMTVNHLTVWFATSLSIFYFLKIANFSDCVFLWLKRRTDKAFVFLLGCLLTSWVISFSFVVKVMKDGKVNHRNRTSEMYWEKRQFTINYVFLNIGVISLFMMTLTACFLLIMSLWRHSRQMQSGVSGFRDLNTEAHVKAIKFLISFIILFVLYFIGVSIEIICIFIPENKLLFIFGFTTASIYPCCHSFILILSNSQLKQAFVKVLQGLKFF
Method: Calcium imaging assay (FLIPR), HEK293T-Gα16gust44 cells transfected with mouse Tas2r105
Assay type: cell-based
Condition Notes: Time 96.781 s
Below, each of the compounds is paired with its reported RLU value.
Recorded Endpoint: RLU (RLU)

>  <Mol>
C[C@H](CCC(=O)O)[C@H]1CC[C@H]2[C@@H]3[C@H](O)C[C@@H]4C[C@H](O)CC[C@]4(C)[C@H]3C[C@H](O)[C@]12C

>  <Recorded Endpoint>
RLU

>  <Measurement Units>
RLU

>  <Experimental Result>
548.118

$$$$
>  <Mol>
C[C@H](CCC(=O)O)[C@H]1CC[C@H]2[C@@H]3CC[C@@H]4C[C@H](O)CC[C@]4(C)[C@H]3CC[C@]12C

>  <Recorded Endpoint>
RLU

>  <Measurement Units>
RLU

>  <Experimental Result>
184.288

$$$$
>  <Mol>
C[C@H](CCC(=O)NCC(=O)O)[C@H]1CC[C@H]2[C@@H]3[C@H](O)C[C@@H]4C[C@H](O)CC[C@]4(C)[C@H]3C[C@H](O)[C@]12C

>  <Recorded Endpoint>
RLU

>  <Measurement Units>
RLU

>  <Experimental Result>
507.8

$$$$
>  <Mol>
C[C@H](CCC(=O)O)[C@H]1CC[C@H]2[C@@H]3CC[C@@H]4C[C@H](O)CC[C@]4(C)[C@H]3C[C@H](O)[C@]12C

>  <Recorded Endpoint>
RLU

>  <Measurement Units>
RLU

>  <Experimental Result>
100.341

$$$$

###

Below, each of the compounds is paired with its reported RLU value.
System Tested: human TAS2R1 (Homo sapiens, UniProt Q9NYW7)
Construct: expressed in transfected cells; host or cells: HEK293T-Gα16gust44
Sequence (Q9NYW7 1-299): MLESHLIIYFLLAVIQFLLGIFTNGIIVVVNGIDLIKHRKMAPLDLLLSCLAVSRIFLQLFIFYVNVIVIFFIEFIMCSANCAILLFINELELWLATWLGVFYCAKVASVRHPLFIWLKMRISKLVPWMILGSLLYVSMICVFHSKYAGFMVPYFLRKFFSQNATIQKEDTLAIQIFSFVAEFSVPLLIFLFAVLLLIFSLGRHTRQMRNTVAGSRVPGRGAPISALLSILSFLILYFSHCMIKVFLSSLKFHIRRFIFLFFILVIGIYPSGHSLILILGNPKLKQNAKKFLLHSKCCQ
Method: Calcium imaging assay (FLIPR), HEK293T-Gα16gust44 cells transfected with human TAS2R1
Format: cell-based
Condition Notes: Time 239.562 s
Description: This set of bile acids was chosen because of their commercial availability in high purities, their diversity within the class of bile acids and their previous detection and quantitation in human blood. Stock solutions were prepared in DMSO. […] Measured data were negative control corrected by subtracting the signal of the mock-transfected cells and exported to Microsoft Excel using the FLIPR software ScreenWorks 4.2. […]

>  <Mol>
C[C@H](CCC(=O)O)[C@H]1CC[C@H]2[C@@H]3[C@@H](O)C[C@@H]4C[C@H](O)CC[C@]4(C)[C@H]3CC[C@]12C

>  <RLU (RLU)>
3.353

$$$$
>  <Mol>
C[C@H](CCC(=O)O)[C@H]1CC[C@H]2[C@@H]3[C@H](O)C[C@@H]4C[C@H](O)CC[C@]4(C)[C@H]3C[C@H](O)[C@]12C

>  <RLU (RLU)>
5.663

$$$$
>  <Mol>
C[C@H](CCC(=O)O)[C@H]1CC[C@H]2[C@@H]3[C@H](O)C[C@@H]4C[C@H](O)CC[C@]4(C)[C@H]3CC[C@]12C

>  <RLU (RLU)>
141.722

$$$$
>  <Mol>
C[C@H](CCC(=O)O)[C@H]1CC[C@H]2[C@@H]3CC[C@@H]4C[C@H](O)CC[C@]4(C)[C@H]3CC[C@]12C

>  <RLU (RLU)>
419.888

$$$$
